TEST NAME: Half-life in monkey at 10 mg/kg, po
Format: ADME, organism-based, Macaca mulatta
CONDITION INFO: rhesus monkey, in vivo

{"CHEMICAL STRING": "C[C@H](c1c[nH]c(=O)c2cc(F)c(F)cc12)N(C)C(=O)Nc1ccc(F)c(C#N)c1", "half-life": "14 h"}

====

TEST NAME: Drug concentration in CD-1 mouse liver at 10 mg/kg, po measured after 24 hrs
Assay type: ADME, organism-based
CONDITION INFO: read-out: Ct

{"CHEMICAL STRING": "C[C@H](c1c[nH]c(=O)c2cc(F)c(F)cc12)N(C)C(=O)Nc1ccc(F)c(C#N)c1", "concentration at 24 h [ng/mL]": 395}

====

TEST NAME: AUC (0 to infinity) in monkey at 10 mg/kg, po
Assay type: ADME, organism-based, Macaca mulatta
CONDITION INFO: rhesus monkey, in vivo
QUANTITY MEASURED: AUC(0-inf) (ng·h/mL)

{"CHEMICAL STRING": "C[C@H](c1c[nH]c(=O)c2cc(F)c(F)cc12)N(C)C(=O)Nc1ccc(F)c(C#N)c1", "QUANTITY MEASURED": "AUC(0-inf)", "QUANTITATIVE RESULT": 9270}

====

TEST NAME: Microsomal stability in human liver microsomes assessed as intrinsic clearance
Assay type: ADME, Microsome
CONDITION INFO: read-out: CLH
Label fulfilled for high-side microsomal CLint (at or above 30 µL/min/mg) and not fulfilled for low-side microsomal CLint (below it).

{"MOLECULE": "C[C@H](c1c[nH]c(=O)c2cc(F)c(F)cc12)N(C)C(=O)Nc1ccc(F)cc1", "CLASSIFICATION": "not fulfilled"}
{"MOLECULE": "C[C@H](c1c[nH]c(=O)c2c(F)c(F)ccc12)N(C)C(=O)Nc1ccc(F)c(Cl)c1", "CLASSIFICATION": "not fulfilled"}
{"MOLECULE": "CC(c1c[nH]c(=O)c2ccccc12)N(C(=O)Nc1ccc(F)c(Cl)c1)C1CC1 (centres undefined)", "CLASSIFICATION": "fulfilled"}
{"MOLECULE": "C[C@H](c1c[nH]c(=O)c2c(F)cc(F)cc12)N(C)C(=O)Nc1ccc(F)c(Cl)c1", "CLASSIFICATION": "not fulfilled"}
{"MOLECULE": "CCN(C(=O)Nc1ccc(F)c(Cl)c1)C(C)c1c[nH]c(=O)c2ccccc12 (centres undefined)", "CLASSIFICATION": "fulfilled"}
{"MOLECULE": "C[C@H](c1c[nH]c(=O)c2cc(F)c(F)cc12)N(C)C(=O)Nc1ccc(F)c(F)c1", "CLASSIFICATION": "not fulfilled"}
{"MOLECULE": "CCCCN(C(=O)Nc1ccc(F)c(Cl)c1)C(C)c1c[nH]c(=O)c2ccccc12 (centres undefined)", "CLASSIFICATION": "fulfilled"}
{"MOLECULE": "COCCN(C(=O)Nc1ccc(F)c(Cl)c1)C(C)c1c[nH]c(=O)c2ccccc12 (centres undefined)", "CLASSIFICATION": "fulfilled"}
{"MOLECULE": "Cc1cc(NC(=O)N(C)[C@H](C)c2c[nH]c(=O)c3cc(F)c(F)cc23)ccc1F", "CLASSIFICATION": "fulfilled"}

Data origin: ChEMBL document CHEMBL5579892
